# System: 282377-053-R-J1-PDC complex spheroid viability
# Procedure Text: Anticancer human tumor 282377-053-R-J1-PDC patient-derived colon adenocarcinoma cell line growth inhibition [POLQ]
# Condition Context: second compound 10 µM; first compound 0.1 µM; active compounds read low

Compound	Result Unit	viability, T/C
COc1cc2cc(C(=O)CCC(=O)O)sc2cc1OC + COC1C(OC(N)=O)C(O)C(Oc2ccc3c(O)c(NC(=O)c4ccc(O)c(CC=C(C)C)c4)c(=O)oc3c2C)OC1(C)C	%	93.7
CCc1cc2c(N3CCc4c(cc(Cn5ccnc5)cc4-c4cn(C)nc4C(F)(F)F)C3=O)cc(C)nc2c(OC)n1 + COC1C(OC(N)=O)C(O)C(Oc2ccc3c(O)c(NC(=O)c4ccc(O)c(CC=C(C)C)c4)c(=O)oc3c2C)OC1(C)C	%	109
O=C(Nc1ccc(O)c(NS(=O)(=O)c2ccc(F)cc2)c1)c1ccc(-c2ccccc2)cc1 + COC1C(OC(N)=O)C(O)C(Oc2ccc3c(O)c(NC(=O)c4ccc(O)c(CC=C(C)C)c4)c(=O)oc3c2C)OC1(C)C	%	95.3

###

# System: 282377-053-R-J1-PDC complex spheroid viability
# Procedure Text: Anticancer human tumor 282377-053-R-J1-PDC cell line growth inhibition [POLQ];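 also: spheroids exposed to compounds for seven days; 100% = DMSO vehicle control viability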
# Condition Context: second compound 3.16 µM; first compound 10 µM; active compounds read low
Label key: YES means viability, T/C under 90%; NO means viability, T/C of 90% or more.

Compound	Test Target	Label Class
COc1cc2cc(C(=O)CCC(=O)O)sc2cc1OC + Cc1cccc(N(C)C(=O)C2C(O)CCN2c2nc(C)cc(C(F)(F)F)c2C#N)c1	282377-053-R-J1-PDC complex spheroid viability	NO
CNCc1ccc(-c2[nH]c3cc(F)cc4c3c2CCNC4=O)cc1 + Nc1ccc(C#CCN(C(=O)Cc2ncc(C(F)(F)F)cc2C(F)(F)F)c2ccc(F)cc2)nn1	282377-053-R-J1-PDC complex spheroid viability	NO
CCc1cc2c(N3CCc4c(cc(Cn5ccnc5)cc4-c4cn(C)nc4C(F)(F)F)C3=O)ccnc2c(OC)n1 + COC1C(OC(N)=O)C(O)C(Oc2ccc3c(O)c(NC(=O)c4ccc(O)c(CC=C(C)C)c4)c(=O)oc3c2C)OC1(C)C	282377-053-R-J1-PDC complex spheroid viability	YES
Nc1ccn(C2OC(CO)C(O)C2(F)F)c(=O)n1 (stereo unspecified) + Nc1ccc(C#CCN(C(=O)Cc2ncc(C(F)(F)F)cc2C(F)(F)F)c2ccc(F)cc2)nn1	282377-053-R-J1-PDC complex spheroid viability	YES
CC1COCCN1c1cc(-c2ccnn2C)c2ccnc(-c3ccn[nH]3)c2n1 (stereo unspecified) + Nc1ccc(C#CCN(C(=O)Cc2ncc(C(F)(F)F)cc2C(F)(F)F)c2ccc(F)cc2)nn1	282377-053-R-J1-PDC complex spheroid viability	YES
CCCS(=O)(=O)Nc1ccc(F)c(C(=O)c2c[nH]c3ncc(-c4ccc(Cl)cc4)cc23)c1F + Nc1ccc(C#CCN(C(=O)Cc2ncc(C(F)(F)F)cc2C(F)(F)F)c2ccc(F)cc2)nn1	282377-053-R-J1-PDC complex spheroid viability	YES

###

# Test system: 282377-053-R-J1-PDC complex spheroid viability
# Procedure Text: Anticancer human tumor 282377-053-R-J1-PDC cell line growth inhibition [POLQ]; active = viability on the fitted dose curve at most 10% of control; inactive = the rest;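 also: spheroids exposed to compounds for seven days; 100% = DMSO vehicle control viability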
# Condition Context: second compound 3.16 µM; first compound 10 µM
Labels: y for active, n for inactive

Compound	Label Class
C=CC(=O)N1CCN(c2nc(=O)n(-c3c(C)ccnc3C(C)C)c3nc(-c4c(O)cccc4F)c(F)cc23)C(C)C1 (stereo not given) + COC1C(OC(N)=O)C(O)C(Oc2ccc3c(O)c(NC(=O)c4ccc(O)c(CC=C(C)C)c4)c(=O)oc3c2C)OC1(C)C	n
CCc1cc2c(N3CCc4c(cc(Cn5ccnc5)cc4-c4cn(C)nc4C(F)(F)F)C3=O)cc(C)nc2c(OC)n1 + Cc1cccc(N(C)C(=O)C2C(O)CCN2c2nc(C)cc(C(F)(F)F)c2C#N)c1	n
COc1ccc([C@@H](O)c2cc(-c3ncnc4cc(N5CCOCC5)ccc34)c(F)cc2Cl)nn1 + Nc1ccc(C#CCN(C(=O)Cc2ncc(C(F)(F)F)cc2C(F)(F)F)c2ccc(F)cc2)nn1	n
COc1cccc2c1C(=O)c1c(O)c3c(c(O)c1C2=O)CC(O)(C(=O)CO)CC3OC1CC(N)C(O)C(C)O1 (stereo not given) + COC1C(OC(N)=O)C(O)C(Oc2ccc3c(O)c(NC(=O)c4ccc(O)c(CC=C(C)C)c4)c(=O)oc3c2C)OC1(C)C	y
O=C(Nc1ccc(O)c(NS(=O)(=O)c2ccc(F)cc2)c1)c1ccc(-c2ccccc2)cc1 + Cc1cccc(N(C)C(=O)C2C(O)CCN2c2nc(C)cc(C(F)(F)F)c2C#N)c1	n
CC1COCCN1c1cc(C2(O)CC3CCC(C2)O3)c2cnn(-c3ccn[nH]3)c2n1 (stereo not given) + Cc1cccc(N(C)C(=O)C2C(O)CCN2c2nc(C)cc(C(F)(F)F)c2C#N)c1	n
CCCS(=O)(=O)Nc1ccc(F)c(C(=O)c2c[nH]c3ncc(-c4ccc(Cl)cc4)cc23)c1F + Cc1cccc(N(C)C(=O)C2C(O)CCN2c2nc(C)cc(C(F)(F)F)c2C#N)c1	n
COc1cc(C2c3cc4c(cc3C(OC3OC5COC(C)OC5C(O)C3O)C3COC(=O)C23)OCO4)cc(OC)c1O (stereo not given) + Cc1cccc(N(C)C(=O)C2C(O)CCN2c2nc(C)cc(C(F)(F)F)c2C#N)c1	n
O=c1[nH]cc(F)c(=O)[nH]1 + COC1C(OC(N)=O)C(O)C(Oc2ccc3c(O)c(NC(=O)c4ccc(O)c(CC=C(C)C)c4)c(=O)oc3c2C)OC1(C)C	n
CC(C)n1c(=O)n(C)c2cnc3cc(F)c(-c4ccc(OCCCN5CCCCC5)nc4)cc3c21 + Nc1ccc(C#CCN(C(=O)Cc2ncc(C(F)(F)F)cc2C(F)(F)F)c2ccc(F)cc2)nn1	n

###

# System: 282377-053-R-J1-PDC complex spheroid viability
# Procedure Text: Anticancer human tumor 282377-053-R-J1-PDC cell line growth inhibition [POLQ];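 also: spheroids exposed to compounds for seven days; 100% = DMSO vehicle control viability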
# Condition Context: second compound 0.1 µM; first compound 3.16 µM; active compounds read low
Label key: true means viability, T/C under 80%; false means viability, T/C of 80% or more.

Compound	Test Target	Label Class
Nc1ccn(C2OC(CO)C(O)C2(F)F)c(=O)n1 (stereo unspecified) + COC1C(OC(N)=O)C(O)C(Oc2ccc3c(O)c(NC(=O)c4ccc(O)c(CC=C(C)C)c4)c(=O)oc3c2C)OC1(C)C	282377-053-R-J1-PDC complex spheroid viability	true
CC1COCCN1c1cc(-c2ccnn2C)c2ccnc(-c3ccn[nH]3)c2n1 (stereo unspecified) + Nc1ccc(C#CCN(C(=O)Cc2ncc(C(F)(F)F)cc2C(F)(F)F)c2ccc(F)cc2)nn1	282377-053-R-J1-PDC complex spheroid viability	true
O=c1[nH]cc(F)c(=O)[nH]1 + Nc1ccc(C#CCN(C(=O)Cc2ncc(C(F)(F)F)cc2C(F)(F)F)c2ccc(F)cc2)nn1	282377-053-R-J1-PDC complex spheroid viability	false
COc1cccc2c1C(=O)c1c(O)c3c(c(O)c1C2=O)CC(O)(C(=O)CO)CC3OC1CC(N)C(O)C(C)O1 (stereo unspecified) + Cc1cccc(N(C)C(=O)C2C(O)CCN2c2nc(C)cc(C(F)(F)F)c2C#N)c1	282377-053-R-J1-PDC complex spheroid viability	true
C=CC(=O)N1CCN(c2nc(=O)n(-c3c(C)ccnc3C(C)C)c3nc(-c4c(O)cccc4F)c(F)cc23)C(C)C1 (stereo unspecified) + Cc1cccc(N(C)C(=O)C2C(O)CCN2c2nc(C)cc(C(F)(F)F)c2C#N)c1	282377-053-R-J1-PDC complex spheroid viability	false
COc1ccc([C@@H](O)c2cc(-c3ncnc4cc(N5CCOCC5)ccc34)c(F)cc2Cl)nn1 + COC1C(OC(N)=O)C(O)C(Oc2ccc3c(O)c(NC(=O)c4ccc(O)c(CC=C(C)C)c4)c(=O)oc3c2C)OC1(C)C	282377-053-R-J1-PDC complex spheroid viability	true
COc1ccc([C@@H](O)c2cc(-c3ncnc4cc(N5CCOCC5)ccc34)c(F)cc2Cl)nn1 + Cc1cccc(N(C)C(=O)C2C(O)CCN2c2nc(C)cc(C(F)(F)F)c2C#N)c1	282377-053-R-J1-PDC complex spheroid viability	true
O=c1[nH]cc(F)c(=O)[nH]1 + Cc1cccc(N(C)C(=O)C2C(O)CCN2c2nc(C)cc(C(F)(F)F)c2C#N)c1	282377-053-R-J1-PDC complex spheroid viability	true
CCc1cc2c(N3CCc4c(cc(Cn5ccnc5)cc4-c4cn(C)nc4C(F)(F)F)C3=O)ccnc2c(OC)n1 + COC1C(OC(N)=O)C(O)C(Oc2ccc3c(O)c(NC(=O)c4ccc(O)c(CC=C(C)C)c4)c(=O)oc3c2C)OC1(C)C	282377-053-R-J1-PDC complex spheroid viability	false
CCc1cc2c(N3CCc4c(cc(Cn5ccnc5)cc4-c4cn(C)nc4C(F)(F)F)C3=O)cc(C)nc2c(OC)n1 + Cc1cccc(N(C)C(=O)C2C(O)CCN2c2nc(C)cc(C(F)(F)F)c2C#N)c1	282377-053-R-J1-PDC complex spheroid viability	false
COc1cc(C2c3cc4c(cc3C(OC3OC5COC(C)OC5C(O)C3O)C3COC(=O)C23)OCO4)cc(OC)c1O (stereo unspecified) + COC1C(OC(N)=O)C(O)C(Oc2ccc3c(O)c(NC(=O)c4ccc(O)c(CC=C(C)C)c4)c(=O)oc3c2C)OC1(C)C	282377-053-R-J1-PDC complex spheroid viability	true

All values here come from PubChem BioAssay AID1963852.
